Where these numbers come from: patent US20250263490A1

# Tested Target: T1, recombinant human domain 1-3His6 of the cation-independent mannose-6-phosphate receptor (human, UniProt P11717 41-467)
# T1 construct: Biotinylated (NHS-PEG4-biotin) for BLI; Glycosylated; also called hDom1-3His6; hCI-M6PRD1-D3
# Test Description: BLI exp 1, dissoc pH 7
pKd: −log10 of the molar value.
Observed Property: pKd

Solved cases (3 shown):
Binder	pKd
anti-CI-M6PR VHH8 (VHH, His6-tagged (Pichia pastoris)) VHH: QVQLQESGGGLVQAGGSLRLSCEASGRTFNTYNWGWFRQAPGKEREFVAAIRWSSSKTSYADSVKGRFTISRDNAKNTIYLQMNSLKPEDTAVYYCAASIVDFTTNPSHFGSWGQGTQVTVSS	8.19
anti-CI-M6PR VHH9 (VHH, His6-tagged; made in Pichia pastoris) VHH: QVQLQESGGGLVQAGGSLRLSCAASGTILSIKTMGWYRQAPGKEREWVATITSSSIPMYADSVKGRFTISRDDAKNTVYLQMNSLKPEDTGVYYCNAPWTDYWGQGTQVTVSS	9.32
anti-CI-M6PR VHH4 (VHH, His6-tagged; made in Pichia pastoris) VHH: QVQLQESGGGLVQAGGSLRLSCAASGRTFSNYVMGWFRQAPGKEREFVGSISQGGKMTYYPDSVKGRFTISRDNAKNTMYLQMDGLKPEDTAVYYCAVSRGYPMVRVSEVDYWGQGTQVTVSS	8.66

[a] anti-CI-M6PR VHH3 (VHH, His6-tagged; made in Pichia pastoris) VHH: QVQLQESGGGLVQPGGSLRLSCAAFGLNFKNFDMIWFRQAPGEERDIVAAISSSSSTIWYEDSVKGRFTISRDNAKNTVYLQMNSLKPEDTAVYYCAAALTSWRRPDYWGQGTQVTVSS
[b] anti-CI-M6PR VHH11 (VHH, His6-tagged; made in Pichia pastoris) VHH: QVQLQESGGGLVQAGDSLKLSCTASGPTFSEITGGWFRQVPGKEREFVASISSTGITTYYTDSVKGRFTVSRDNAKNTMYLQMNSLKPEDTGVYYCAARSTSRSIAITVGYDYWGQGTQVTVSS
Of a versus b , which is the one with smaller reported pKd? Bench note: the answer is the label of the chosen record.
b
(b: 7.69, a: 9.57)
